# key: entry, value: self-cleavage
B1: HDV Ribozyme (parent)
chain: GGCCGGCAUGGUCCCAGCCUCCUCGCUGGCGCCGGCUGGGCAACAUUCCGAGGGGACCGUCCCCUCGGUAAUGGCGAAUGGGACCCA

variants of: B1; assay: self-cleavage, relative activity (ratio to wild type); higher = more cleavage; co-transcriptional
In your answer, state the number alone without any accompanying words.

Below are worked cases with known answers.
GGCCGGCAUGGUCCCAGCCUCCUCGCUGGCGCCGGCUCGGCAACAUGCCGAGGGGACCGUCCCCUCGGUAAUGGCGAAUGGGACCCA [G38C U47G] = 0.225
GGCCGGCAUGGUACCAGCCUCGUCGCUGGCGCCGGCUGGGCAACAUUCCGAGGGGACCGUCCCCUCGGUAAUGGCGAAUGGGACCCA [C13A C22G] = 0.026
GGCCGGCAUGGUCGCAGCCUCCUCGCUGGCGCCGGCUGGGCAACAUUCCGAGGGGACCGUCCCCUCGGUAAUGGCGAAUAGGACCCA [C14G G80A] = 0.346
GGCCGGCAUGGUCCCAGCCUCCUCGCUGGCGCCGGAUGGGCAACAUUCCGAGGGGACCGUCCCCUCGGUAAUGGCGAAUGAGACCCA [C36A G81A] = 0.138
GGCCGGCAUGGUCCCAGCCUCCUCGCUGGCGCCGGCUGGGCAACACUCCGAGCGGACCGUCCCCUCGGUAAUGGCGAAUGGGACCCA [U46C G53C] = 0.739
GGCCGGCAUGGUCCCAGCCUCCUCGCUGGCGCCGGCUGGGAAACAUUCCGAGGGGACCGUCCCCUCGGUAAUGGCGAAUAGGACCCA [C41A G80A] = 0.389
GGCCGGCCUGGUCCCAGCCUCCUCGCUGGCGCCGGCUGGGCAACAUUCCGAGGGGACCGUCCCCUCGGUAAUGGCGAGUGGGACCCA [A8C A78G] = 0.35
GGCCGGCAUGGUCCCAGCCUCCUCGCUGGCGCCGGCUGGGCAACAUUCCGAGGGGACCGUCCCCACGGUAAAGGCGAAUGGGACCCA [U65A U72A] = 0.636

-- ask Please give the measured self-cleavage for this variant: GGGCGGCAUGGUCCCAGCCUCAUCGCUGGCGCCGGCUGGGCAACAUUCCGAGGGGACCGUCCCCUCGGUAAUGGCGAAUGGGACCCA [C3G C22A]
-- reply 0.119

-- ask Please give the measured self-cleavage for this variant: GGCUGGCAUGGUCCCAGCCUCCUCGCUGGCGCCGGCUGGGCAACAUUGCGAGGGGACCGUCCCCUCGGUAAUGGCGAAUGGGACCCA [C4U C48G]
-- reply 0.554

-- ask Please give the measured self-cleavage for this variant: GGCCGGCAUGGUCCCAGCCUCCUCGCUCGCGCUGGCUGGGCAACAUUCCGAGGGGACCGUCCCCUCGGUAAUGGCGAAUGGGACCCA [G28C C33U]
-- reply 0.232

-- ask Please give the measured self-cleavage for this variant: GGCGGGCAUGGUCCCAGCCUCCUCGCUGGCGCCGGCUGGGCAACAUUCCGAGGGGACCGUCCCCUCGGUAAUGGCGAAUGGGACCCC [C4G A87C]
-- reply 0.373

The measured values listed here are drawn from the RNAGym collection of RNA variant scans (doi:10.7554/elife.80360).
